molecular target: Tau40 P301L protein (human); assay: cell-based or functional assay
Square brackets hold non-standard residues; d marks the D form. Ends that are not written are not given here.
Measured Endpoint: IC50, Tau40 assay (ThT)

[[record]]
binder = "[dF][dR][dL][dW][dI][dH][dW] [frlwihw]"
result_value = "3.33 µM"

[[record]]
binder = "[dF][dK][dI][dR][dI][dH][dY][dH] [fkirihyh]"
result_value = "2.76 µM"

[[record]]
binder = "[dW][dR][dL][dK][dV][dR] [wrlkvr]"
result_value = "18.5 µM"

[[record]]
binder = "[dW][dR][dE][dK][dV][dR][dW][dW] [wrekvrww]"
result_value = "19.3 µM"

[[record]]
binder = "[dW][dR][dL][dR][dA][dH][dW] [wrlrahw]"
result_value = "3.23 µM"

[[record]]
binder = "[dW][dR][dL][dL][dV][dR][dW][dW] [wrllvrww]"
result_value = "6.46 µM"

[[record]]
binder = "[dW][dL][dK][dV][dR][dW] [wlkvrw]"
result_value = "5.51 µM"

